Counter-ions that a name gives are not always drawn.
ENDPOINT: melting point

Examples with answers:
1) Cc1cc(S(=O)(=O)c2ccc(O)c(Cl)c2)ccc1C1CCNC1 (stereo not drawn) (as salt: HCl) ... 110 to 112.9 °C
2) Cc1cc(S(=O)(=O)c2ccccc2)ccc1[C@@H]1CCN(S(C)(=O)=O)C1 ... 56 to 58 °C
3) Cc1cc(S(=O)(=O)c2ccc(O)c(C(C)C)c2)ccc1C1CCNC1 (stereo not drawn) ... 125 to 128 °C
4) Cc1cc(S(=O)(=O)c2ccc(O)cc2)ccc1C1CCN(C)C1 (stereo not drawn) (as salt: HCl) ... 186 to 187.5 °C
5) CCS(=O)(=O)c1cccc(S(=O)(=O)c2ccc(C3CCNC3)c(O)c2)c1 (stereo not drawn) (as salt: HCl) ... 124.5 to 126.7 °C

// next item, melting point requested
Complete the entry with melting point for O=S(=O)(c1cccc(F)c1)c1ccc([C@@H]2CCNC2)c(O)c1 (as salt: HCl)
239 to 241 °C
